Entry source: patent US20250304608A1

Each entry below lists one item and its recorded log10 of IC50 value.
- Tested on: mPTP-inactive Daoy cell
- Assay: CellTiter-Glo cell viability inhibition, mPTP-inactive Daoy cell
- Type: cell-based
- Condition Summary: Homo sapiens, Daoy cell transfected with PPIF shRNA vector
The base-10 logarithm of IC50, taken with IC50 in nM, is what appears here.

COc1ccc([P+](c2ccc(OC)cc2)(c2cccc3nn(C)cc23)c2cccc3nn(C)cc23)cc1 [AB36471] = 3.17
COc1ccc([P+](c2ccc(OC)cc2)(c2ccc3[nH]ccc3n2)c2cccc3c2ccn3CCN2CCOCC2)cc1 [AB36459] = 2.51
COc1ccc([P+](c2ccc(OC)cc2)(c2ccc(OC)cc2)c2cccc3[nH]ccc23)cc1 [AB35527] = 2.40

Ask | Supply recorded log10 of IC50 for c1ccc([P+](c2ccccc2)(c2ccccc2)c2ccc3cc[nH]c3c2)cc1 [AB35431] here.
Reply | 2.81

Ask | Quick one: give measured log10 of IC50 for COc1ccc([P+](c2ccc(OC)cc2)(c2cccc3c2ccn3C)c2cccc3c2cnn3C)cc1 [AB36438]
Reply | 2.38

Ask | Give log10 of IC50 for the following compound: COc1ccc([P+](c2ccc(OC)cc2)(c2cc3cc[nH]c3cn2)c2cccc3[nH]ccc23)cc1 [AB36453]
Reply | 2.46

Ask | Input Cn1ccc2c([P+](c3ccccc3)(c3ccccc3)c3ccccc3)cccc21 [AB35573] , output reported log10 of IC50.
Reply | 2.38

* * *

- Test system: Con-NCI-H82 cell
- Assay: CellTiter-Glo cell viability inhibition, Con-NCI-H82 cell
- Type: cell-based
- Condition Summary: Homo sapiens, NCI-H82 cell transfected with empty virus vector
Class boundaries, taken from values of IC50, are as follows: lower = under 0.4 µM, middle = from 0.4 µM up to 1 µM, upper = 1 µM and over

Known results for molecules:
c1ccc([P+](c2ccccc2)(c2ccc3cc[nH]c3c2)c2ccc3cn[nH]c3c2)cc1 = middle
c1ccc([P+](c2ccccc2)(c2cncc3[nH]ccc23)c2cncc3[nH]ccc23)cc1 = upper
CCCCCCCCCCCCCC[P+](c1ccccc1)(c1ccccc1)c1ccccc1 = lower
c1ccc([P+](c2ccccc2)(c2ccc3[nH]ccc3c2)c2cnc3[nH]ccc3c2)cc1 = middle
c1ccc([P+](c2ccccc2)(c2ccc3[nH]ncc3c2)c2cccc3[nH]ccc23)cc1 = middle
Brc1c(C[P+](c2ccccc2)(c2ccccc2)c2ccccc2)[nH]c2ccccc12 = upper
COc1ccc([P+](c2ccc(OC)cc2)(c2ccnc3c2ccn3C)c2ccnc3c2ccn3C)cc1 = upper
c1ccc([P+](c2ccccc2)(c2ccc3cc[nH]c3c2)c2ccccn2)cc1 = middle
Cn1ccc2cc([P+](c3ccccc3)(c3ccccc3)c3ccccc3)ccc21 = lower
c1ccc([P+](c2ccccc2)(c2ccccc2)c2cccc3c2ccn3CCN2CCOCC2)cc1 = middle

Ask | The entry to classify is `c1ccc([P+](c2ccccc2)(c2ccc3[nH]ccc3c2)c2ccc3[nH]ccc3n2)cc1` ; which class holds it?
Reply | lower

Ask | Class label required: `c1ccc([P+](c2ccccc2)(c2ccc3cn[nH]c3c2)c2cccc3[nH]ccc23)cc1`
Reply | upper

Ask | Category of `c1ccc([P+](c2ccccc2)(c2cccc3[nH]ccc23)c2cccc3cn[nH]c23)cc1` , please.
Reply | lower

Ask | // return the class label for `c1ccc([P+](c2ccccc2)(c2cccnc2)c2ccc3[nH]ccc3c2)cc1`
Reply | upper

Ask | Could you place `COc1ccc([P+](c2ccc(OC)cc2)(c2ccc3[nH]ccc3n2)c2cccc3c2ccn3CCN2CCOCC2)cc1` in its proper category? Many thanks.
Reply | middle

* * *

- System: Con-NCI-H82 cell
- Assay: CellTiter-Glo cell viability inhibition, Con-NCI-H82 cell
- Format: cell-based
- Condition Summary: Homo sapiens, NCI-H82 cell transfected with empty virus vector
// reported IC50 for each item listed
Enter your answer as a number in µM; do not include the unit.

// known answers, use as guide
C1=C([P+](c2ccccc2)(c2ccccc2)c2ccccc2)CCOC1 = 4.72
c1ccc([P+](c2ccccc2)(c2cc3cc[nH]c3cn2)c2cccc3[nH]ccc23)cc1 = 0.21

Next up:
Ask | Specify measured IC50 for `c1ccc([P+](c2ccccc2)(c2ccccc2)c2ccc3c(ccn3CCN3CCOCC3)c2)cc1` .
Reply | 0.51

* * *

- System: Con-NCI-H82 cell
- Assay: CellTiter-Glo cell viability inhibition, Con-NCI-H82 cell
- Type: cell-based
- Condition Summary: Homo sapiens, NCI-H82 cell transfected with empty virus vector
Form field: IC50 (one value per entry).
Record the value in µM, omitting the unit from your answer.

c1ccc([P+](c2ccccc2)(c2cccc3[nH]ccc23)c2cccc3[nH]ccc23)cc1 [AB35419] = 0.05
COc1ccc([P+](c2ccc(OC)cc2)(c2ccc(OC)cc2)c2cccc3c2ccn3C)cc1 [AB36411] = 0.17
c1ccc([P+](c2ccccc2)(c2ccccc2)c2cccc3cc[nH]c23)cc1 [AB35449] = 2.17
COc1ccc([P+](c2ccc(OC)cc2)(c2cccc3c2ccn3C)c2ccnc3c2ccn3C)cc1 [AB36407] = 0.24

Ask | Report IC50 for c1ccc([P+](c2ccccc2)(c2ccncc2)c2ccc3cc[nH]c3c2)cc1 [AB35479]
Reply | 6.36

Ask | Provide IC50 value for the following molecule: C(=C\C[P+](c1ccccc1)(c1ccccc1)c1ccccc1)/C[P+](c1ccccc1)(c1ccccc1)c1ccccc1 [SJ00001]
Reply | 0.68

Ask | Name the recorded IC50 of the molecule listed here: Cn1ccc2c([P+](c3ccccc3)(c3ccccc3)c3ccccc3)cccc21 [AB35573]
Reply | 0.14

* * *

Measured log10 IC50 values are reported for all entries that follow.
- Tested on: Con-NCI-H82 cell
- Assay: CellTiter-Glo cell viability inhibition, Con-NCI-H82 cell
- Type: cell-based
- Condition Summary: Homo sapiens, NCI-H82 cell transfected with empty virus vector
Quick note: numbers are log10 of IC50, with µM as the unit.

c1ccc([P+](c2ccccc2)(c2ccccc2)c2cccc3ccoc23)cc1 = -0.25
Cn1cc2c([P+](c3ccccc3)(c3ccccc3)c3cccc4c3ccn4C)cccc2n1 = -0.39
c1ccc([P+](c2ccccc2)(c2ccccc2)c2cscn2)cc1 = 0.60
COc1ccc([P+](c2ccc(OC)cc2)(c2cccc3[nH]ccc23)c2cccc3[nH]ncc23)cc1 = 0.00
c1ccc([P+](c2ccccc2)(c2ccc3[nH]ccc3c2)c2ccc3[nH]cnc3c2)cc1 = 0.19
c1ccc([P+](c2ccccc2)(c2ccc3[nH]ccc3c2)c2cc3[nH]ccc3cn2)cc1 = -0.01
c1ccc([P+](c2ccccc2)(c2ccc3cc[nH]c3c2)c2cnc3cc[nH]c3c2)cc1 = 0.50

Ask | Please respond with reported log10 IC50 (system Con-NCI-H82 cell) for `COc1ccc([P+](c2ccc(OC)cc2)(c2cccc3[nH]ncc23)c2cccc3[nH]ncc23)cc1` .
Reply | 0.81

* * *

- Tested on: mPTP-inactive Daoy cell
- Assay: CellTiter-Glo cell viability inhibition, mPTP-inactive Daoy cell
- Type: cell-based
- Condition Summary: Homo sapiens, Daoy cell transfected with PPIF shRNA vector
Listing of entries alongside the reported IC50.
Record the value in µM, omitting the unit from your answer.

Cn1cc2c([P+](c3ccccc3)(c3ccccc3)c3cccc4c3ccn4C)cccc2n1 [AB35574] = 2.45
COc1ccc([P+](c2ccc(OC)cc2)(c2ccc(OC)cc2)c2cccc3c2ccn3C)cc1 [AB36411] = 0.68
Cn1ccc2c([P+](c3ccccc3)(c3ccccc3)c3cccc4c3cnn4C)cccc21 [AB35578] = 1.45
COc1ccc([P+](c2ccc(OC)cc2)(c2cccc3c2ccn3C)c2cccc3c2ccn3C)cc1 [AB36420] = 0.19

With those in mind, consider the next compound.
Ask | Determine from records and report IC50 for c1ccc([P+](c2ccccc2)(c2ccccc2)c2ccoc2)cc1 [AB36533]
Reply | 3.52

* * *

- Tested on: mPTP-inactive Daoy cell
- Assay: CellTiter-Glo cell viability inhibition, mPTP-inactive Daoy cell
- Type: cell-based
- Condition Summary: Homo sapiens, Daoy cell transfected with PPIF shRNA vector
Experimental Endpoint: IC50
Respond with a number, then the unit of measure.

c1ccc([P+](c2ccccc2)(c2ccncc2)c2cccc3[nH]ccc23)cc1 = 2450 nM
c1ccc([P+](c2ccccc2)(c2cccc3[nH]ccc23)c2cccc3[nH]ccc23)cc1 = 150 nM
COc1ccc([P+](c2ccc(OC)cc2)(c2cccc3c2ccn3C)c2ccnc3c2ccn3C)cc1 = 240 nM
c1ccc([P+](c2ccccc2)(c2ccc3[nH]ccc3n2)c2cccc3[nH]ccc23)cc1 = 460 nM
Cn1ccc2cc([P+](c3ccccc3)(c3ccccc3)c3ccccc3)ccc21 = 270 nM

Ask | Give reported IC50 value for `CCCCCCCCCCCC[P+](c1ccccc1)(c1ccccc1)c1ccccc1`
Reply | 330 nM

Ask | State, in one line, measured IC50 of `c1ccc([P+](c2ccccc2)(c2cccc3[nH]ccc23)c2cncc3[nH]ccc23)cc1`
Reply | 820 nM

Ask | Specify reported IC50 for the compound shown: `COc1ccc([P+](c2ccc(OC)cc2)(c2cccc3[nH]ccc23)c2cccc3[nH]ncc23)cc1`
Reply | 1320 nM

Ask | Give the value of IC50 reported for the following: `c1ccc([P+](c2ccccc2)(c2cccc3cc[nH]c23)c2cccc3cc[nH]c23)cc1`
Reply | 12700 nM

Ask | Dear colleague, please send me the reported IC50 for `[C-]#[N+]N=P(c1ccccc1)(c1ccccc1)c1ccccc1` when you can.
Reply | 7990 nM

Ask | State, in one line, measured IC50 of `c1ccc([P+](c2ccccc2)(c2cnc3[nH]ccc3c2)c2cccc3[nH]ccc23)cc1`
Reply | 560 nM

Ask | Return IC50 (reported value) for this compound: `c1ccc([P+](c2ccccc2)(c2ccc3cc[nH]c3n2)c2cccc3[nH]ccc23)cc1`
Reply | 360 nM
